Recorded values, source patent US11414429B2.

Molecular target: tankyrase 2 (TNKS 2) (Homo sapiens, UniProt Q9H2K2)
Construct: 613-1, 116aa; made in house; host or cells: cell-free protein synthesis system
Sequence (Q9H2K2 613-1166): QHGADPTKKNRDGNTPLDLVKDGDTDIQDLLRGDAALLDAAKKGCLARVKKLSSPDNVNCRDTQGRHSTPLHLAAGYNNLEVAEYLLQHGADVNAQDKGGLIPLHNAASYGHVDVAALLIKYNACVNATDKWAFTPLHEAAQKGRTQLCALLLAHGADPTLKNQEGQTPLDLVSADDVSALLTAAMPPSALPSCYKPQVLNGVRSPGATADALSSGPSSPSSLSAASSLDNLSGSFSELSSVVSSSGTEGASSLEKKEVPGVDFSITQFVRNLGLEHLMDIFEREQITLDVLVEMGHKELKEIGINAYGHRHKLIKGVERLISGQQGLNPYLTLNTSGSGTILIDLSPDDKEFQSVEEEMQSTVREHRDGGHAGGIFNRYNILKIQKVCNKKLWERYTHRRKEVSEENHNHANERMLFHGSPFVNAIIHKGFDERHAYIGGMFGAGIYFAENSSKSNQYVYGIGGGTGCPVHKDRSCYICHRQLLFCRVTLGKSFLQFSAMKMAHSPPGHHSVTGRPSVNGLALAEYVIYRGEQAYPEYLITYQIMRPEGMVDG
Assay: Tankyrase inhibitory activity test (ELISA, self-polyADP ribosylation), tankyrase 2
Type: biochemical
Conditions: ELISA, self-polyADP ribosylation; class symbols; read-out: TNKS2 (inhibitory activity against tankyrase 2, IC50 value)
What IC50 was measured for each of the following?

Past entries and their recorded results:
# Chemical string, Assay target, IC50
records = [
    ("CNS(=O)(=O)COc1cc(F)c2c(c1)N(C)C(=O)C21CCN(c2nc3c(c(=O)[nH]2)CCCN3C)CC1", "tankyrase 2 (TNKS 2) (Homo sapiens, UniProt Q9H2K2)", "< 0.02 µM"),
    ("CN1CCCc2c1nc(N1CCC3(CC1)C(=O)N(C)c1cc(OCCNS(C)(=O)=O)cc(F)c13)[nH]c2=O", "tankyrase 2 (TNKS 2) (Homo sapiens, UniProt Q9H2K2)", "0.02 to 0.2 µM"),
    ("CN1CCCc2c1nc(N1CCC3(CC1)C(=O)N(C)c1cc(N4CCN(C(=O)CO)CC4)cc(F)c13)[nH]c2=O", "tankyrase 2 (TNKS 2) (Homo sapiens, UniProt Q9H2K2)", "< 0.02 µM"),
]

Would you kindly look at the next entry?
Return value of IC50 for input "COC1CCN(c2cc(F)c3c(c2)N(C)C(=O)C32CCN(c3nc4c(c(=O)[nH]3)CCCN4C)CC2)CC1" , no commentary.
< 0.02 µM

* * *

Target: tankyrase 1 (TNKS 1) (Homo sapiens)
Construct: 1,024-1,327aa; made in house; host or cells: cell-free protein synthesis system
Sequence (O95271 1024-1327): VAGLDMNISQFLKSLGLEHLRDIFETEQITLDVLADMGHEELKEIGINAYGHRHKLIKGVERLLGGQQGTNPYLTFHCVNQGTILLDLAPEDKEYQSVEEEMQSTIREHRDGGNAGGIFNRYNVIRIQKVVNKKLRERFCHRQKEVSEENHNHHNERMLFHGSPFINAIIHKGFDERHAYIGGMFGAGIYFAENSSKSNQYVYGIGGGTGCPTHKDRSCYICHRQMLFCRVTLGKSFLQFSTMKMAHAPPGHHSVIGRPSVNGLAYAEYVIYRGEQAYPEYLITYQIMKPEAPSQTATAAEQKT
Experiment: Tankyrase inhibitory activity test (ELISA, self-polyADP ribosylation), tankyrase 1
Type: biochemical
Settings: tankyrase 1, ELISA, self-polyADP ribosylation; read-out: TNKS1 inhibitory activity (IC50 class)
pIC50: −log10 of the molar value.
Measured quantity: pIC50

# Chemical string, pIC50
data = [
    ("O=c1[nH]c(N2CCC3(CC2)CN(Cc2ncccn2)c2cc(F)cc(F)c23)nc2c1CCCC2", "> 7.70"),
]

I'm hoping you can list pIC50 for every compound here, please.
1. O=c1[nH]c(N2CCC3(CC2)CN(Cc2cccnc2)c2cc(Cl)ccc23)nc2c1CCCC2
2. COc1cc(F)c2c(c1)N(C)C(=O)C21CCN(c2nc3c(c(=O)[nH]2)CCCN3C)CC1
3. O=C1N(Cc2cccnc2)c2cc(F)cc(F)c2C12CCN(c1nc3c(CO)cccc3c(=O)[nH]1)CC2

1. 6.70 to 7.70
2. > 7.70
3. > 7.70

* * *

What IC50 was measured for each of the following?
Target: tankyrase 2 (TNKS 2) (Homo sapiens)
Construct: 613-1, 116aa; made in house; host or cells: cell-free protein synthesis system
Assay: Tankyrase inhibitory activity test (ELISA, self-polyADP ribosylation), tankyrase 2
Type: biochemical
Conditions: ELISA, self-polyADP ribosylation; class symbols; read-out: TNKS2 (inhibitory activity against tankyrase 2, IC50 value)

# Chemical string, IC50
rows = [
    ("CN1CCCc2c1nc(N1CCC3(CC1)C(=O)N(CC(F)(F)F)c1cc(OCCO)cc(F)c13)[nH]c2=O", "< 20 nM"),
    ("C[C@@H]1CN(c2cc(F)c3c(c2)N(CC(F)(F)F)C(=O)C32CCN(c3nc4c(c(=O)[nH]3)CCCN4C)CC2)C[C@H](C)N1", "< 20 nM"),
    ("CN1CCCc2c1nc(N1CCC3(CC1)C(=O)N(C)c1cc(C(=O)O)cc(F)c13)[nH]c2=O", "< 20 nM"),
    ("CN1CCCc2c1nc(N1CCC3(CC1)C(=O)N(CC(C)(C)O)c1cccc(F)c13)[nH]c2=O", "< 20 nM"),
    ("CN1CCCc2c1nc(N1CCC3(CC1)C(=O)N(C)c1cc(N4CCN(C5COC5)CC4)cc(F)c13)[nH]c2=O", "< 20 nM"),
]

I'm hoping you can list IC50 for every compound here, please.
1. CN1CCCc2c1nc(N1CCC3(CC1)C(=O)N(C)c1c(OCc4nnn[nH]4)ccc(Cl)c13)[nH]c2=O
2. CN1CCCc2c1nc(N1CCC3(CC1)C(=O)N(C)c1cc(OCC(=O)NS(C)(=O)=O)cc(F)c13)[nH]c2=O
3. CN1CCCc2c1nc(N1CCC3(CC1)C(=O)N(C)c1cc(OCC(=O)O)cc(F)c13)[nH]c2=O
4. CN1CCCc2c1nc(N1CCC3(CC1)C(=O)N(C)c1c(OCC(=O)O)ccc(F)c13)[nH]c2=O
5. CN1CCCc2c1nc(N1CCC3(CC1)C(=O)N(CC(F)(F)F)c1cc(OCc4nnn[nH]4)cc(F)c13)[nH]c2=O
6. COc1ccc(Cl)c2c1N(CCN1CCN(C(C)=O)CC1)C(=O)C21CCN(c2nc3c(c(=O)[nH]2)CCCN3C)CC1
7. CN1CCCc2c(O)nc(N3CCC4(CC3)OC(=O)c3cc(OCCN5CCCC5)cc(F)c34)nc21
8. CN1CCCc2c1nc(N1CCC3(CC1)C(=O)N(C)c1cc(N4CC(=O)N(Cc5ccccc5)C(=O)C4)cc(F)c13)[nH]c2=O

< 20 nM
< 20 nM
< 20 nM
< 20 nM
< 20 nM
< 20 nM
< 20 nM
20 to 200 nM

I'm hoping you can list IC50 for every compound here, please.
1. COc1ccc(F)c2c1N(CC(C)(C)O)CC21CCN(c2nc3c(c(=O)[nH]2)CCCN3)CC1
2. CN1CCCc2c1nc(N1CCC3(CC1)C(=O)N(C)c1c(OCCNC(C)(C)C)ccc(F)c13)[nH]c2=O
3. CN1CCCc2c1nc(N1CCC3(CC1)OC(=O)c1cc(-c4cnn(C)c4)cc(F)c13)[nH]c2=O

1. < 20 nM
2. 20 to 200 nM
3. < 20 nM

I'm hoping you can list IC50 for every compound here, please.
1. COCCN1CCN(c2cc(F)c3c(c2)N(C)C(=O)C32CCN(c3nc4c(c(=O)[nH]3)CCCN4C)CC2)CC1
2. COCCN1C(=O)C2(CCN(c3nc4c(c(=O)[nH]3)CCCN4C)CC2)c2c(F)cc(OCCN(C)C)cc21
3. CN1CCCc2c1nc(N1CCC3(CC1)C(=O)N(C)c1cc(N4CCN(S(=O)(=O)N(C)C)CC4)cc(F)c13)[nH]c2=O
4. CC(=O)NS(=O)(=O)COc1cc(F)c2c(c1)N(C)C(=O)C21CCN(c2nc3c(c(=O)[nH]2)CCCN3C)CC1
5. CN1CCN(c2cc(F)c3c(c2)N(CC#N)C(=O)C32CCN(c3nc4c(c(=O)[nH]3)CCCN4C)CC2)CC1

1. 20 to 200 nM
2. < 20 nM
3. < 20 nM
4. < 20 nM
5. < 20 nM

I'm hoping you can list IC50 for every compound here, please.
1. CN1CCCc2c1nc(N1CCC3(CC1)OC(=O)c1cc(N4CCN(C(C)(C)C)CC4)cc(F)c13)[nH]c2=O
2. CN1C(=O)C2(CCN(c3nc4c(c(=O)[nH]3)CCCN4)CC2)c2c(F)ccc(OCCO)c21
3. CN1CCCc2c1nc(N1CCC3(CC1)C(=O)N(CC(F)(F)F)c1cc(OCCN4CCCC4)cc(F)c13)[nH]c2=O
4. COCCN1C(=O)C2(CCN(c3nc4c(c(=O)[nH]3)CCCN4C)CC2)c2c(F)cc(OCC(=O)O)cc21
5. CN1CCCc2c1nc(N1CCC3(CC1)C(=O)N(C)c1cc(N4CCNCC4)cc(F)c13)[nH]c2=O
6. CN1CCCc2c1nc(N1CCC3(CC1)C(=O)N(C)c1cc(N4CC5CCC(C4)N5)cc(F)c13)[nH]c2=O

1. < 20 nM
2. < 20 nM
3. 20 to 200 nM
4. < 20 nM
5. 20 to 200 nM
6. < 20 nM

Return value of IC50 for input "CN1CCCc2c1nc(N1CCC3(CC1)C(=O)N(C)c1cc(N4CCC(S(C)(=O)=O)CC4)cc(F)c13)[nH]c2=O" , no commentary.
< 20 nM

* * *

Target: tankyrase 2 (TNKS 2) (Homo sapiens)
Construct: 613-1, 116aa; made in house; host or cells: cell-free protein synthesis system
Assay: Tankyrase inhibitory activity test (ELISA, self-polyADP ribosylation), tankyrase 2
Format: biochemical
Conditions: ELISA, self-polyADP ribosylation; class symbols; read-out: TNKS2 (inhibitory activity against tankyrase 2, IC50 value)
What IC50 was measured for each of the following?

Past entries and their recorded results:
# Chemical string, Assay target, IC50
data = [
    ("CN(C)CCOc1ccc(F)c2c1N(C)C(=O)C21CCN(c2nc3c(c(=O)[nH]2)CCCN3C)CC1", "tankyrase 2 (TNKS 2) (Homo sapiens)", "< 20 nM"),
    ("CN1CCN(c2ccc(-c3cc(F)c4c(c3)C(=O)OC43CCN(c4nc5c(c(=O)[nH]4)CCCN5C)CC3)cc2)CC1", "tankyrase 2 (TNKS 2) (Homo sapiens)", "20 to 200 nM"),
]

Would you kindly look at the next entry?
Return value of IC50 for input "CN1CCN(CCOc2cc(F)c3c(c2)N(CC(F)(F)F)C(=O)C32CCN(c3nc4c(c(=O)[nH]3)CCCN4C)CC2)CC1" , no commentary.
20 to 200 nM
